Each recorded value in this set is attributed to ChEMBL document CHEMBL1811814.

Tested on: HOP-62
protocol.details: Growth inhibition of human HOP62 cells
Format: functional
This listing pairs compounds with measured GI50.
Put down the number, then write its unit next to it.

Examples with their reported GI50 follow.
**Q:** Which GI50 is reported for this compound? `CC1=NN(c2cccc(Cl)c2)C(=O)/C1=C\C=C\c1ccccc1`
**A:** 3.1 µM

**Q:** Now this one: `O=C1/C(=C\c2ccccn2)c2ccccc2N1c1c(Cl)cccc1Cl`
**A:** 2.3 µM

**Q:** Quick one: `O=C1Nc2ccccc2/C1=C/c1cn(C(=O)c2c(Cl)cccc2Cl)c2ccccc12`
**A:** 12.8 µM

Further cases:
**Q:** For `CC1=NN(c2cccc(Cl)c2)C(=O)/C1=C\c1c(O)ccc2ccccc12` , what is its reported GI50?
**A:** 31.6 µM

----------
Attribute: LC50 (concentration killing 50% of cells)
System: NCI-H23
protocol.details: Growth inhibition of human NCI-H23 cells
Format: functional

See these solved cases before continuing.
**Q:** What value of LC50 (concentration killing 50% of cells) has been recorded for this entry: `CC1=NN(c2cccc(Cl)c2)C(=O)/C1=C\c1c(O)ccc2ccccc12`
**A:** > 100 µM

**Q:** What about this molecule? `CC1=NN(c2cccc(Cl)c2)C(=O)/C1=C\C=C\c1ccccc1`
**A:** > 100 µM

**Q:** What do you get for `O=C1Nc2ccccc2/C1=C/c1cn(C(=O)c2c(Cl)cccc2Cl)c2ccccc12` ?
**A:** 50.1 µM

Pending molecule:
**Q:** Could you tell me which LC50 (concentration killing 50% of cells) is on file for `O=C1/C(=C\c2ccccn2)c2ccccc2N1c1c(Cl)cccc1Cl` ?
**A:** > 100 µM

----------
Tested on: SK-MEL-28
protocol.details: Growth inhibition of human SK-MEL-28 cells assessed tumor cell growth at 10^-5 M
Assay type: functional
Design: scale not given: the % may be the effect or the level left
// reported Activity per item
Numbers only; they are read as %.

Example entries and their recorded answers appear below.
**Q:** What does the record list as Activity for `Cc1ccc(S(=O)(=O)n2cc(/C=C3\C(=O)Nc4ccccc43)c3ccccc32)cc1` ?
**A:** 86.8

**Q:** Also need `CC1=NN(c2cccc(Cl)c2)C(=O)/C1=C\c1cn(C(=O)c2c(Cl)cccc2Cl)c2ccccc12` , thanks.
**A:** 108.69

**Q:** Note, next up: `C=CCn1cc(/C=C2\C(=O)N(c3cccc(Cl)c3)N=C2C)c2ccccc21`
**A:** 97.08

**Q:** How about this compound: `CC1=NN(c2cccc(Cl)c2)C(=O)/C1=C\c1cn(S(=O)(=O)c2ccc(C)cc2)c2ccccc12`
**A:** 125.16

**Q:** Now the compound `O=C1C(=Cc2cn(Cc3ccccc3)c3ccccc23)C(=O)N(Cc2ccccc2)C(=O)N1Cc1ccccc1`
**A:** 109.5

**Q:** Try this compound too: `CC1=NN(c2cccc(Cl)c2)C(=O)/C1=C\c1cn(C(=O)c2ccc(Cl)cc2)c2ccccc12`
**A:** 112.94

Others:
**Q:** Quick one: Activity for `O=C1/C(=C\c2coc3ccccc3c2=O)c2ccccc2N1c1c(Cl)cccc1Cl` ?
**A:** 47.32

**Q:** Try this compound too: `CC1=NN(c2cccc(Cl)c2)C(=O)/C1=C\c1cn(Cc2ccccc2)c2ccccc12`
**A:** 98.38

**Q:** Next entry: `O=C1/C(=C\c2cn(C(=O)c3c(Cl)cccc3Cl)c3ccccc23)c2ccccc2N1C(=O)c1c(Cl)cccc1Cl`
**A:** 103
